# ASSAY SYSTEM: Fatty acid synthase (Rattus norvegicus) (UniProt P12785)
# Sequence (P12785 whole entry): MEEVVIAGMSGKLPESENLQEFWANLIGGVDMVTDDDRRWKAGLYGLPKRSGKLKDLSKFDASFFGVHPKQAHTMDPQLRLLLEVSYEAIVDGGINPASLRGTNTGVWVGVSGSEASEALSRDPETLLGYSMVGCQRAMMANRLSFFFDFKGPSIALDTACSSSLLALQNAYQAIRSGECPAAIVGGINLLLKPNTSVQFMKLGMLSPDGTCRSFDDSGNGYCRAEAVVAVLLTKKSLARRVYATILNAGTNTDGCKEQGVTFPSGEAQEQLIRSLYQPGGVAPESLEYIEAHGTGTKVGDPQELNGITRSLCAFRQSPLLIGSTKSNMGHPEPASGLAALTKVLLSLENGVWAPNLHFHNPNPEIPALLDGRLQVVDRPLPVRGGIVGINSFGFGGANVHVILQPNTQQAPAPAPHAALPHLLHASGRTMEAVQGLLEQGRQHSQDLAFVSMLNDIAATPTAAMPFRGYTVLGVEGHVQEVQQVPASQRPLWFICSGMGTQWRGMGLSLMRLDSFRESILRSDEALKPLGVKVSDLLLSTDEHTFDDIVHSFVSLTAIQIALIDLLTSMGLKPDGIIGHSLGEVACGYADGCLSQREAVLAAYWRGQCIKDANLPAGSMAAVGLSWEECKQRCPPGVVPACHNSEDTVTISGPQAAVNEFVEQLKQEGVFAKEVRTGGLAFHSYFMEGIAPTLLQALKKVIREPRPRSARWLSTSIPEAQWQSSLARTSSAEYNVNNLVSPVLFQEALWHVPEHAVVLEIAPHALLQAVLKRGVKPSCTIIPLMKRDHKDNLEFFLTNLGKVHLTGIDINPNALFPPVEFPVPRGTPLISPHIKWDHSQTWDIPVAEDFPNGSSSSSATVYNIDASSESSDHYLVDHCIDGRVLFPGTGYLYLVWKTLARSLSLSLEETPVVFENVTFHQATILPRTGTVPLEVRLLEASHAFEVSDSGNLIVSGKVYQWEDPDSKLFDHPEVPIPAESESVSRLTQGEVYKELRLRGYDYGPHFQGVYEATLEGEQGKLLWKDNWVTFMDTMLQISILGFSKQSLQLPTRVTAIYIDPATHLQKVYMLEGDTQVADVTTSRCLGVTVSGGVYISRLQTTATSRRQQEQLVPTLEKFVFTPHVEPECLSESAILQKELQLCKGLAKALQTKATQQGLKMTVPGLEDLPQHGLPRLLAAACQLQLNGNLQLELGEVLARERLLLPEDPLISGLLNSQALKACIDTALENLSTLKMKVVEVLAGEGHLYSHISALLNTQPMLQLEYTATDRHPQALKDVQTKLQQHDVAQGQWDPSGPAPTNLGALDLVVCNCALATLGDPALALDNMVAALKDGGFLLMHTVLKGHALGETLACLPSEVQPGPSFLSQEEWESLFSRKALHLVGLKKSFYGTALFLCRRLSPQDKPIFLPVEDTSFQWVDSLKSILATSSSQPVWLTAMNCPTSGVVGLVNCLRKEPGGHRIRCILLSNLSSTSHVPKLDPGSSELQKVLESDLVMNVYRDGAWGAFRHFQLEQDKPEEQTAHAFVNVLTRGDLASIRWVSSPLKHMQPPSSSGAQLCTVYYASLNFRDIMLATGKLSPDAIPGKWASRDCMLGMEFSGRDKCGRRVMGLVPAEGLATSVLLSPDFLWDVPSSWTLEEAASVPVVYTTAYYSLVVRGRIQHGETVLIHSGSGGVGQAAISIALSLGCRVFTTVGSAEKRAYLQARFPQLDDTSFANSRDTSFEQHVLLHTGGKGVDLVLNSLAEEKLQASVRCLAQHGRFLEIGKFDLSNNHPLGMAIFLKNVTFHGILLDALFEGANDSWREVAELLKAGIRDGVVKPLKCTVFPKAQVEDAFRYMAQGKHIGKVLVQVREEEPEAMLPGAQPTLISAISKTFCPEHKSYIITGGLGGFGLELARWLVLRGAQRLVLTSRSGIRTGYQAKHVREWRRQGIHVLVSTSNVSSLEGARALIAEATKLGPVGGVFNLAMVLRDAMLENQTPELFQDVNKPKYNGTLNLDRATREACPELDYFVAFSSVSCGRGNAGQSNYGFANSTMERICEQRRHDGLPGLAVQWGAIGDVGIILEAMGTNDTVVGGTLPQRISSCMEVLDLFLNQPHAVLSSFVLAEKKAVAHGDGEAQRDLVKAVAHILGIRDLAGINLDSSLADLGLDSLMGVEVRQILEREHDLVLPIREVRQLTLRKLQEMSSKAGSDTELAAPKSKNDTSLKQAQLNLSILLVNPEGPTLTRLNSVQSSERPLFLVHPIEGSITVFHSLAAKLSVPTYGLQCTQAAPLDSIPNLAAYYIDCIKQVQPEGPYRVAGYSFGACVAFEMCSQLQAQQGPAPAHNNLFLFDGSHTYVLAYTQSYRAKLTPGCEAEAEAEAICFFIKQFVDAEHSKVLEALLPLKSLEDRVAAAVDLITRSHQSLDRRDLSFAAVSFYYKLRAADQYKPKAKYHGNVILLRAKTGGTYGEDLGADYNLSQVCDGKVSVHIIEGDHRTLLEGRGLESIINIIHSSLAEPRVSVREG
# PROTOCOL SUMMARY: Inhibition of Sprague-Dawley rat liver fatty acid synthase at 60 umol
The entries below come with measured inhibition values attached.
# number only, unit % dropped from output

MOLECULE | inhibition (%)
CCCCCCCCCC[C@H]1SC(=O)c2ccccc2[C@@H]1C(=O)O (relative stereo) | 90.2
CCCCCCCCCCC[C@H]1SC(=O)c2ccccc2[C@@H]1C(=O)O (relative stereo) | 95.7
CCCCCCCC[C@H]1SC(=O)c2ccccc2[C@@H]1C(=O)O (relative stereo) | 50.9
CCCCCCCCCC1SC(=O)c2ccccc2[C@@H]1C(=O)O (stereo partly specified) | 77.5
CCCCCCC[C@H]1SC(=O)c2ccccc2[C@@H]1C(=O)O (relative stereo) | 43.1

Per the records, this molecule ( CCCCCC[C@H]1SC(=O)c2ccccc2[C@@H]1C(=O)O (relative stereo) ) has inhibition equal to 40.4
